Experimental Protocol: Induction of anti-CD3 antibodies-stimulated human exhausted T cell activation assessed fold increase in IFN-gamma secretion measured by ELISA assay; further: reference of the scale not given here
Type: functional, T cell line

Input Smiles	fold change (FC)
Cc1cc2c(c(C3CC3)n1)CN(c1cccc([C@H](C)Cc3nncn3C)c1)C2=O	<=1.4
COC1CN(Cc2cc3c(c(C(F)(F)F)c2)CN(c2cccc([C@@](C)(F)C(F)(F)c4nncn4C)c2)C3=O)C1	>1.61
Cn1cnnc1CC1(c2cccc(N3Cc4c(cc(CN5CC(F)C5)cc4C(F)(F)F)C3=O)c2)COC1	>1.61

----------
Experimental Protocol: Induction of anti-CD3/CD28 antibodies-stimulated human T cell activation at 0.3 uM assessed fold increase in IL-2 secretion measured by ELISA assay
Assay type: functional, T cell line
Quick list: fold change (FC) per entry.
Lab note: jot the number down without any unit.

Input Smiles	fold change (FC)
C[C@H](Sc1nncn1C)c1cccc(NC(=O)c2ccnc(C(F)(F)F)n2)c1	1.01
Cn1cnnc1CC1(c2cccc(N3Cc4c(cccc4C(F)(F)F)C3=O)c2)CC(F)(F)C1	2.51
Cc1cc2c(c(C3CC3)n1)CN(c1cccc([C@H](C)Cc3nncn3C)c1)C2=O	1.01
Cc1n[nH]c(C)c1-c1cc2c(c(C(F)(F)F)c1)CN(c1cccc(C3(Cc4nncn4C)COC3)c1)C2=O	1.01
Cn1cnnc1C(F)(F)[C@](C)(F)c1cccc(N2Cc3c(cc(C(=O)N4CC[C@H](O)C4)cc3C(F)(F)F)C2=O)c1	1.01

Query: Give its fold change (FC) value. Item: Cn1cnnc1C[C@H](c1cccc(N2Cc3c(cccc3C(F)(F)F)C2=O)c1)C(F)(F)F
Result: 1.01

Query: What do you have for C[C@H]1CN(C)CCN1c1cc2c(c(C(F)(F)F)c1)CN(c1cccc(C3(Cc4nncn4C)COC3)c1)C2=O ?
Result: 5

----------
Experimental Protocol: Induction of anti-CD3/CD28 antibodies-stimulated human CD4+ T cell activation at 1.11 uM assessed fold increase in CD69 expression measured by flow cytometry analysis
Assay type: functional, T cell line
Quantity Kind: fold change (FC)

Input Smiles	Result
C[C@H](Cc1nncn1C)c1cccc(NC(=O)c2cccc(CCO)n2)c1	<=1.2
C[C@H](Cc1nncn1C)c1cccc(N2Cc3c(cc(CN4CC[C@H](F)C4)cc3C(F)(F)F)C2=O)c1	>1.601
C[C@H](Cc1nncn1C)c1cccc(N2Cc3c(cc(CN4CC(O)C4)cc3C(F)(F)F)C2=O)c1	<=1.2

----------
Experimental Protocol: Induction of anti-CD3 antibodies-stimulated human T cell activation at 1 uM assessed fold increase in CD25 expression measured by ELISA assay; further: reference of the scale not given here
Assay type: functional, T cell line
Quantity Kind: fold change (FC)

Input Smiles	Result
COc1ccc2c(c1)CN(Cc1cc3c(c(C(F)(F)F)c1)CN(c1cccc(C4(Cc5nncn5C)COC4)c1)C3=O)C2	>=1.001
C[C@@H](Sc1nncn1C)c1cccc(NC(=O)c2cccc(C(F)(F)F)n2)c1	<=0.6
C[C@H](Sc1nncn1C)c1cccc(NC(=O)c2cc3ccccc3cn2)c1	<=0.6
C[C@H](c1cc2c(c(C(F)(F)F)c1)CN(c1cccc(C3(C(F)(F)c4nncn4C)COC3)c1)C2=O)N1CC[C@H](F)C1	>=1.001

----------
Experimental Protocol: Induction of anti-CD3/CD28 antibodies-stimulated human T cell activation at 4 uM assessed fold increase in CD25 expression measured by ELISA assay
Format: functional, T cell line
Quick list: fold change (FC) per entry.
Lab note: jot the number down without any unit.

Below are worked cases with known answers.
Compound	Quantity Kind	Result Number
Cn1cnnc1C(F)(F)[C@](C)(F)c1cccc(N2Cc3c(cc(CN4CC[C@@H](C#N)C4)cc3C(F)(F)F)C2=O)c1	fold change (FC)	1.31
C[C@H](Sc1nncn1C)c1cccc(NC(=O)c2cc(C(C)(C)O)cc(C(F)(F)F)n2)c1	fold change (FC)	1.01
C[C@H](Cc1nncn1C)c1cccc(NC(=O)c2cc(C(F)(F)F)n[nH]2)c1	fold change (FC)	1.01
C[C@H](Sc1nncn1C)c1cccc(NC(=O)c2ccc(C#N)c(C3CC3)n2)c1	fold change (FC)	1.31
C[C@H](Cc1nncn1C)c1cccc(N2Cc3c(cc(CN4CC[C@](C)(O)C4)cc3C(F)(F)F)C2=O)c1	fold change (FC)	1.31
C[C@@H](c1cccc(N2Cc3c(cccc3C(F)(F)F)C2=O)c1)[C@@H](F)c1nncn1C (single isomer, unassigned)	fold change (FC)	1.01

Query: Give its fold change (FC) value. Item: Cn1cnnc1CC1(c2cccc(N3Cc4c(cccc4C(F)(F)F)C3=O)c2)COC1
Result: 1.31
